This collection of values is drawn from patent US6410585B1.

# study-system: human PTP1B (Homo sapiens, UniProt P18031)
# Construct: human PTP1B (amino acid residues 1-321); made in house; host or cells: E. coli BL21(DE3)
# Sequence (P18031 1-321): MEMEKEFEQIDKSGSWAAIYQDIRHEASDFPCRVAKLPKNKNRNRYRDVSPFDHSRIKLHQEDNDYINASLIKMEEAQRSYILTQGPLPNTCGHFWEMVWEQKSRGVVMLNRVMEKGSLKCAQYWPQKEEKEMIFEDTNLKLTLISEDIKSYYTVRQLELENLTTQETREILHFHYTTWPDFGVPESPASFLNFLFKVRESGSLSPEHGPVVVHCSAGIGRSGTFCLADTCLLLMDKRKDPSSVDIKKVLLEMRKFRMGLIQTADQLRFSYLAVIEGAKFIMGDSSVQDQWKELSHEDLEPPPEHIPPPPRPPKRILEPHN
# procedure-text: PTP1B assay, pNPP hydrolysis, assayed exactly as for PTP1
# Type: biochemical
# condition-context: Conc 10 uM, Table 2, read-out: PTP1B Inhib PTP1B. % Inhib
For each record, write down the corresponding inhibition at 10 µM.
Numbers only, in %.

Use these answered entries as a reference point.
                                   compound                              study_system           value_kind  measurement
0  CCCCCNC(=O)C(Cc1ccc(OC(COO)COO)cc1)NC(=O)N(Cc1cccc(C(=O)O)c1)Cc1cccc(C(F)(F)F)c1 (centres unmarked)  human PTP1B (Homo sapiens, UniProt P18031)  inhibition at 10 µM            9
1  CCCCCNC(=O)C(Cc1ccc(OC(COO)COO)cc1)NC(=O)C(C)NC(=O)OC(C)(C)C (centres unmarked)  human PTP1B (Homo sapiens, UniProt P18031)  inhibition at 10 µM           36
2  CCCCCNC(=O)C(Cc1ccc(OCCOO)c(COO)c1)NC(=O)C(Cc1ccccc1)NC(=O)Cc1ccc(OC)cc1 (centres unmarked)  human PTP1B (Homo sapiens, UniProt P18031)  inhibition at 10 µM           87
3  CCCCCNC(=O)[C@H](Cc1ccc(OCC(=O)O)c(C(=O)O)c1)NC(=O)C(Cc1ccccc1)NC(=O)CSc1cnn[nH]1 (some centres unmarked)  human PTP1B (Homo sapiens, UniProt P18031)  inhibition at 10 µM           88
4  CCCCCNC(=O)C(Cc1ccc(OCCOO)c(COO)c1)NC(=O)C(Cc1ccccc1)NC(=O)Cc1c[nH]c2ccccc12 (centres unmarked)  human PTP1B (Homo sapiens, UniProt P18031)  inhibition at 10 µM           88

Give me inhibition at 10 µM for each of these compounds, listed below.
1. CCCCCNC(=O)C(Cc1ccc(OCCOO)c(COO)c1)NC(=O)C(C)NC(=O)OC(C)(C)C (centres unmarked)
2. CCCCCNC(=O)[C@H](Cc1ccc(OCC(=O)O)c(C(=O)NO)c1)NC(=O)[C@H](Cc1ccccc1)NC(=O)OC(C)(C)C
3. CCCCCNC(=O)C(Cc1ccc(OCCOO)c(COO)c1)NC(=O)C(Cc1ccccc1)NC(=O)CCc1ccccc1 (centres unmarked)

1. 43
2. 13
3. 74

---

# study-system: rat PTP1 (Rattus norvegicus)
# Construct: a C-terminal truncation of rat PTP1 (amino acid residues 1-322); GST (N, cleaved yes); made in house; host or cells: E. coli strain TG-1 (pGEX-2T)
# Sequence (P20417 1-322): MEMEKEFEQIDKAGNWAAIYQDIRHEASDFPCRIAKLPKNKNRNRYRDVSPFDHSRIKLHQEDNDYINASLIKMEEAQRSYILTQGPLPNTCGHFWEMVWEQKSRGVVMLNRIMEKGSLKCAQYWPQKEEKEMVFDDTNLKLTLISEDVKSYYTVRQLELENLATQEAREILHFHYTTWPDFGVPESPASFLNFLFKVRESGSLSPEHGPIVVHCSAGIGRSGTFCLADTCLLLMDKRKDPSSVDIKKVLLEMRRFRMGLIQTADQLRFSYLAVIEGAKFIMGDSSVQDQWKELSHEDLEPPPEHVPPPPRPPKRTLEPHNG
# procedure-text: PTP1 assay, pNPP hydrolysis (rate of change in A405)
# Assay type: biochemical
# condition-context: Conc 100 uM; pNPP hydrolysis; Table 1; read-out: PTP1 Inhib % Inhib
Think of 70% as a floor: if inhibition at 100 µM stands on it or above, it is True; beneath it, False.

Field: example entries. Status: answers known.
In [3]: df
Out[3]:
                                   compound  answer_label
0  O=C(O)CCC(=O)N[C@@H](Cc1ccc(OC(C(=O)O)C(=O)O)cc1)C(=O)NCCc1ccc(O)cc1         False
1  CCCCCNC(=O)[C@H](Cc1ccc(OC(C(=O)O)C(=O)O)cc1)NC(=O)C(CC(=O)O)NC(=O)OCc1ccccc1 (stereo partly shown)          True
2  CCCCCNC(=O)C(Cc1ccc(OCC(=O)O)c(COO)c1)NC(=O)CCC(=O)O (stereo not shown)          True
3  CCCCCNC(=O)C(Cc1ccc(OC(COO)COO)cc1)NC(=O)N(CC(=O)O)Cc1ccccc1 (stereo not shown)          True
4  CCCCCNC(=O)[C@H](Cc1ccc(OC(C(=O)O)C(=O)O)cc1)NC(=O)CCc1ccc(CC(C(=O)O)C(=O)O)cc1          True

Please check the record O=C(O)CCC(=O)NC(Cc1ccc(OC(COO)COO)cc1)C(=O)NCc1cccc2ccccc12 (stereo not shown) and state if its inhibition at 100 µM is at or above 70%.
False

Please check the record O=C(O)CCC(=O)NC(Cc1ccc(OC(COO)COO)cc1)C(=O)NCc1ccc(C(F)(F)F)cc1 (stereo not shown) and state if its inhibition at 100 µM is at or above 70%.
False

Please check the record CCCCCNC(=O)C(Cc1ccc(OS(=O)(=O)O)cc1)NC(=O)CCC(=O)O (stereo not shown) and state if its inhibition at 100 µM is at or above 70%.
True

Please check the record O=C(O)CCC(=O)NC(Cc1ccc(OC(COO)COO)cc1)C(=O)NCc1ccc2c(c1)OCO2 (stereo not shown) and state if its inhibition at 100 µM is at or above 70%.
False

Please check the record CCCCCNC(=O)C(Cc1ccc(OC(CCOO)COO)cc1)NC(=O)CCC(=O)O (stereo not shown) and state if its inhibition at 100 µM is at or above 70%.
False

Please check the record CCCCCNC(=O)C(Cc1ccc(OC(C(=O)O)C(=O)O)cc1)NC(=O)C(CC(=O)O)NC(=O)OC(C)(C)C (stereo not shown) and state if its inhibition at 100 µM is at or above 70%.
True

Please check the record `CCCCCNC(=O)[C@H](Cc1ccc(OC(C(=O)O)C(=O)O)cc1)NC(=O)CC(=O)O` and state if its inhibition at 100 µM is at or above 70%.
True

Please check the record CCCCCNC(=O)C(Cc1ccc(OC(COO)COO)cc1)NC(=O)CCC(=O)OCc1ccccc1 (stereo not shown) and state if its inhibition at 100 µM is at or above 70%.
False

Please check the record `CCCCCNC(=O)[C@H](Cc1ccc(CC(C(=O)O)C(=O)O)cc1)NC(=O)CCC(=O)O` and state if its inhibition at 100 µM is at or above 70%.
False

---

# study-system: human PTP1B (Homo sapiens, UniProt P18031)
# Construct: human PTP1B (amino acid residues 1-321); made in house; host or cells: E. coli BL21(DE3)
# procedure-text: PTP1B assay, pNPP hydrolysis, assayed exactly as for PTP1
# Type: biochemical
# condition-context: Conc 1 uM, Table 2, read-out: PTP1B Inhib PTP1B. % Inhib
For each record, write down the corresponding inhibition at 1 µM.
One number for each entry, in %.

Use these answered entries as a reference point.
                                   compound  measurement
0  CCCCCNC(=O)C(Cc1ccc(OC(COO)COO)cc1)NC(=O)C(Cc1ccccc1)NC(=O)CCOC (centres unmarked)           19
1  CCCCCNC(=O)C(Cc1ccc(OC(COO)COO)cc1)NC(=O)Nc1cccc(C(=O)O)c1 (centres unmarked)           17
2  CCCCCNC(=O)C(Cc1ccc(OC(COO)COO)cc1)NC(=O)N(Cc1ccccc1)C(CCc1ccccc1)CC(=O)O (centres unmarked)            5
3  CCCCCNC(=O)C(Cc1ccc(OC(COO)C(=O)O)cc1)NC(=O)NC(Cc1ccc(OCc2ccccc2)cc1)C(=O)O (centres unmarked)           14
4  CCCCCNC(=O)C(Cc1ccc(OCCOO)c(COO)c1)NC(=O)C(Cc1ccccc1)NC(C)=O (centres unmarked)           28

Give me inhibition at 1 µM for each of these compounds, listed below.
1. CCCCCNC(=O)[C@H](Cc1ccc(OCC(=O)O)c(C(=O)O)c1)NC(=O)C(Cc1ccccc1)NC(=O)CSc1nnc[nH]1 (some centres unmarked)
2. CCCCCNC(=O)C(Cc1ccc(OCCOO)c(COO)c1)NC(=O)C(Cc1ccccc1)NC(=O)CCCO (centres unmarked)
3. CCCCCNC(=O)C(Cc1ccc(OC(COO)COO)cc1)NC(=O)C(C)NC(=O)OC(C)(C)C (centres unmarked)

[36, 23, 7]

---

# study-system: rat PTP1 (Rattus norvegicus)
# Construct: a C-terminal truncation of rat PTP1 (amino acid residues 1-322); GST (N, cleaved yes); made in house; host or cells: E. coli strain TG-1 (pGEX-2T)
# procedure-text: PTP1 assay, pNPP hydrolysis (rate of change in A405)
# Type: biochemical
# condition-context: Conc 100 uM; pNPP hydrolysis; Table 2; read-out: PTP1 Inhib PTP1N. % Inhib
value-kind: inhibition at 100 µM (%)
Answers are plain numbers, in %.

>>> df
                                   molecule            value_kind  measurement
0  CCCCCNC(=O)C(Cc1ccc(OC(COO)COO)cc1)NC(=O)N(Cc1ccc(CC(=O)O)cc1)Cc1cccc(C(F)(F)F)c1 (stereo not shown)  inhibition at 100 µM           92
1  CCCCCNC(=O)C(Cc1ccc(OC(COO)COO)cc1)NC(=O)C(Cc1ccc(OCc2ccccc2)cc1)N(C)C(=O)OC(C)(C)C (stereo not shown)  inhibition at 100 µM           32
2  CCCCCNC(=O)C(Cc1ccc(OC(COO)COO)cc1)NC(=O)C(Cc1ccc(C(=O)c2ccccc2)cc1)NC(=O)CCc1ccc(O)cc1 (stereo not shown)  inhibition at 100 µM           89
3  CCCCCNC(=O)C(Cc1ccc(OC(COO)COO)cc1)NC(=O)C(Cc1ccc(C(=O)c2ccccc2)cc1)NC(=O)OC(C)(C)C (stereo not shown)  inhibition at 100 µM           91
4  CCCCCNC(=O)C(Cc1ccc(OC(COO)COO)cc1)NC(=O)NCC(=O)NCC(=O)O (stereo not shown)  inhibition at 100 µM           93
5  O=C(O)CCC(=O)NC(Cc1ccc(C(=O)c2ccccc2)cc1)C(=O)NCCc1ccc(OC(COO)COO)cc1 (stereo not shown)  inhibition at 100 µM           60
6  CCCCCNC(=O)C(Cc1ccc(OC(COO)COO)cc1)NC(=O)C(Cc1ccc(OCc2c(Cl)cccc2Cl)cc1)NC(=O)OC(C)(C)C (stereo not shown)  inhibition at 100 µM           85
7  CCCCCNC(=O)C(Cc1ccc(OC(COO)COO)cc1)NC(=O)C(Cc1ccccc1)NC(=O)OC(C)(C)C (stereo not shown)  inhibition at 100 µM           88

Give me inhibition at 100 µM for each of these molecules, listed below.
1. CCCCCNC(=O)C(C)(Cc1ccc(OC(C(=O)O)C(=O)O)cc1)NC(=O)CCC(=O)O (stereo not shown)
2. CCCCCNC(=O)C(Cc1ccc(OC(C(=O)O)C(=O)O)c(F)c1)NC(=O)CCC(=O)O (stereo not shown)
3. CCCCCNC(=O)C(Cc1ccc(OC(COO)COO)cc1)NC(=O)C(Cc1ccc(OC(C)(C)C)cc1)NC(=O)CCC(=O)O (stereo not shown)
4. CCCCCNC(=O)C(Cc1ccc(OC(COO)COO)cc1)NC(=O)C(Cc1ccc(OC)cc1)NC(=O)OC(C)(C)C (stereo not shown)
5. CCCCCNC(=O)C(Cc1ccc(OC(COO)COO)cc1)NC(=O)[C@H](Cc1ccc(C(=O)c2ccccc2)cc1)NC(C)=O (stereo partly shown)
6. CCCCCNC(=O)C(Cc1ccc(OC(COO)C(=O)O)cc1)NC(=O)NC(Cc1ccccc1)C(=O)O (stereo not shown)
7. CCCCCNC(=O)C(Cc1ccc(OC(COO)COO)cc1)NC(=O)C(Cc1ccc(OC(C)(C)C)cc1)NC(=O)OC(C)(C)C (stereo not shown)
8. CCCCCNC(=O)C(Cc1ccc(OC(COO)COO)cc1)NC(=O)C(C)NC(=O)OC(C)(C)C (stereo not shown)

1: 34; 2: 78; 3: 97; 4: 90; 5: 87; 6: 93; 7: 89; 8: 76
